test system: Plasmodium falciparum; assay: Primary screen in NF54 nanoGlo assay, in single point, at 2uM, 72h; format: functional, Erythrocyte; conditions: timepoint 72 hour
The whole screen tested about 150,000 compounds, of which about 540 (0.36%) showed an effect of 50% or more. The sample holds strong results, similar compounds and a random draw of the others, so the mix is not that of the screen.
# % Inhibition values compiled below
Give your result in % as a bare value.

IN: // query % Inhibition value for entry O=C(O)CCC(=O)NC1=NN2C(=NC(c3ccccc3)=C[C@H]2c2ccc(Cl)cc2)N1
OUT: -39

IN: Tell me the measured % Inhibition of CCC(=O)NC1=NN2C(=NC(c3ccc(Cl)cc3)=C[C@H]2c2ccc(F)cc2)N1 , please.
OUT: 5

IN: Return reported % Inhibition; argument: COc1ccc(CCNc2nc(-c3ccc(OC)cc3)c3c(N)n(-c4ccc(OC)cc4)nc3n2)cc1
OUT: -13

IN: Requested read-out: % Inhibition. Entry: O=C(NCCn1c(=O)[nH]c2ccsc2c1=O)c1cc(-c2ccc(F)cc2)c[nH]1
OUT: -4

IN: Given the compound O=C(NC1CC1c1ccc(F)cc1)N1CCN(c2ccccc2O)CC1 (centres undefined) , what is its reported % Inhibition?
OUT: -7

IN: Need % Inhibition of COc1ccc([C@@H]2C=C(c3ccc(Cl)cc3)N=C3NC(N4C(=O)c5ccccc5C4=O)=NN32)cc1 , thanks.
OUT: -6

IN: Would you kindly share the measured % Inhibition for Cc1ccccc1N1CCN(C(=O)CC[C@@H]2CN(Cc3ccccn3)CC[C@@H]2N2CCOCC2)CC1 ?
OUT: 2

IN: Fill blank: measured % Inhibition of the compound Cc1cc(NC(=O)C2CCC(C3CC3)CC2)n2ncnc2n1 (centres undefined) is ____.
OUT: -7

IN: I am curious: what % Inhibition value has been reported for O=C(NC1=NN2C(=NC(c3ccc(Cl)cc3)=C[C@H]2c2ccc(F)cc2)N1)c1ccc(Cl)cc1 ?
OUT: 48

###

tested on: Plasmodium falciparum; experiment: Primary screen in NF54 nanoGlo assay, in single point, at 2uM, 72h; a lower Z score goes with more inhibition; format: functional, Erythrocyte; settings: timepoint 72 hour
About 540 (0.36%) of roughly 150,000 compounds showed an effect of 50% or more. For the sample, strong results were picked, then their nearest neighbours and some compounds at random.
Field: label. Allowed values: label 1 (Z score < -1) or label 0 (Z score >= -1).

CC[C@H](C)NC(=O)c1sc2nc(C)c(C(=O)Nc3ccc(C)cc3C)c(-c3cccs3)c2c1N	label 1
CN1CC[C@@H](CNC(=O)c2ccnc3c2ncn3C)[C@@H]1c1cccnc1	label 0

IN: Criterion: Z score strictly below -1. Is it met by CCc1ccc(NC(=O)c2sc3nc(C)c(C(=O)Nc4ccc(C)cc4C)c(-c4ccccc4Cl)c3c2N)cc1 ?
OUT: label 1

IN: Regarding Cc1ccc(NC(=O)c2c(C)nc3sc(C(=O)NCc4ccccc4)c(N)c3c2-c2ccccc2Cl)c(C)c1 , kindly confirm whether its Z score is beneath -1.
OUT: label 1

IN: I wonder whether Cc1ccccc1Cn1cnc2c1c(=O)n(C1CCCCC1)c(=O)n2-c1ccccc1Cl has Z score below -1. Can you tell?
OUT: label 1

IN: Please let me know if COc1ccccc1Cn1cnc2c1c(=O)n(C1CCCCC1)c(=O)n2-c1ccccc1Cl shows Z score below -1.
OUT: label 1

IN: Is Z score of COc1ccc(NC(=O)c2sc3nc(C)c(C(=O)Nc4ccc(C)cc4C)c(-c4ccccc4Cl)c3c2N)cc1 strictly below -1?
OUT: label 1

IN: Please determine if O=C(NC1CCCCC1)c1nn(-c2ccc(F)cc2)c2ccccc2c1=O is below -1 in terms of Z score.
OUT: label 0

IN: Given the entry CN1CCC(N(C)C(=O)c2ccccc2NC2CCCCC2)CC1 , would its reported Z score be below -1?
OUT: label 1
